# tgt: CDK2/Cyclin E1 (Homo sapiens, UniProt P24941)
# assay.name: CDK2/Cyclin E1 Biochemical Assay (TR-FRET), 0.060 mM ATP
# conditions.used: 0.15 μM Rb (Ser780)-biotin substrate, pH7.0, 60 min preincubation, 120 min reaction, room temperature
property.measured: IC50 (nM)

                                   compound  property_measured  observed_result
0  CC(C)NC(=O)O[C@H]1CC[C@@H](c2cc(Nc3ccc4c(c3)S(=O)(=O)NC4C)[nH]n2)C1 (single isomer, unassigned) [Example 5a]               IC50              2.2
1  CC(C)NC(=O)O[C@H]1CC[C@@H](c2cc(Nc3ccc4c(c3F)CN(CCN(C)C)S4(=O)=O)n[nH]2)C1 (relative stereo) [Example 74]               IC50               16
2  CC1(C)CCN1C(=O)O[C@H]1CC[C@@H](c2cc(Nc3ccc4c(c3F)CNS4(=O)=O)n[nH]2)C1 (relative stereo) [Example 155]               IC50              1.3
